These entries and their values trace back to PubChem BioAssay (NCI).

# experiment description: NCI Yeast Anticancer Drug Screen. Data for the bub3 strain (AID 167)
# assay setup: S. cerevisiae bub3 mutant strain, at 50.0 µM, stronger effect = higher value
About 79,000 compounds went through this panel and 15% of them were active in at least one assay; those are over-represented in the sample as a whole.
Readings of growth inhibition for the listed compounds
Just the number in %, nothing appended.

# count of solved cases: 2
compound: O=C(Nc1ccn(C2CCC(COC(c3ccccc3)(c3ccccc3)c3ccccc3)O2)c(=O)n1)c1ccccc1 (stereo unspecified)
unit text: %
growth inhibition: -26.2
--
compound: C1OC2OC3OCOC3C2O1 (stereo unspecified)
unit text: %
growth inhibition: 17

// recorded growth inhibition for COc1ccc(OC)c(/C=C/C(=O)NC(CO)CSCSC)c1 (stereo unspecified) : 21.5

// recorded growth inhibition for CC(=O)C1C(=O)C(=O)N(c2ccccc2C(C)C)C1=O (stereo unspecified) : 11.9

// recorded growth inhibition for Cc1c(-c2ccccc2)n[nH]c1-c1[nH]nc(-c2ccccc2)c1C : -41.1

// recorded growth inhibition for CC/C=N/Nc1cn[nH]c(=O)c1Cl : -7.75

---

Readings of growth inhibition for the listed molecules
# experiment description: NCI Yeast Anticancer Drug Screen. Data for the rad50 strain (AID 155);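 further: 0% = growth of vehicle-only cultures of the same strain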
# assay setup: S. cerevisiae rad50 strain growth inhibition; at 50.0 µM; stronger effect = higher value
About 79,000 compounds went through this panel and 15% of them were active in at least one assay; those are over-represented in the sample as a whole.
Just the number in %, nothing appended.

molecule: CC(C)C1CC(N(C)C)=CC(=O)N1 (stereo unspecified)
growth inhibition [%]: -41.5
--
molecule: Cc1ccccc1NP1(Nc2ccccc2C)=NP(Nc2ccccc2C)(Nc2ccccc2C)=NP(Nc2ccccc2C)(Nc2ccccc2C)=NP(Nc2ccccc2C)(Nc2ccccc2C)=N1
growth inhibition [%]: 0.8
--
molecule: CCn1c(SCC(=O)N/N=C/c2ccccc2)nc2ccccc2c1=O
growth inhibition [%]: 5.65
--
molecule: O=C1CSC(c2c(F)cccc2Cl)N1c1nncs1 (stereo unspecified)
growth inhibition [%]: 9.4
--
molecule: O=S(=O)(O)c1cc2cc(S(=O)(=O)O)c(O)cc2cc1O
growth inhibition [%]: -20.6

// recorded growth inhibition for CCN(CC)CCCCNc1ccnc(N)n1 : -8.65

// recorded growth inhibition for C=CCCCCCCCCC(=O)OCC(C)C : 11.3

// recorded growth inhibition for CN1CCCCCCCC(=O)C(OC(=O)c2ccc([N+](=O)[O-])cc2)CCCCCCC1 (stereo unspecified) : 33.5

// recorded growth inhibition for c1ccc(Cc2nnc3n2CCC(c2ccccc2)S3)cc1 (stereo unspecified) : -9.8

// recorded growth inhibition for Cn1c(=O)c(N=Nc2c(=O)n(C)c(=O)n3c2[nH]c2ccccc23)c2[nH]c3ccccc3n2c1=O : -2.1

// recorded growth inhibition for CSc1nc(C)c(CCOC(C)=O)c(Cl)n1 : -18.1

---

# experiment description: NCI Yeast Anticancer Drug Screen. Data for the cln2 rad14 strain (AID 165);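 further: 0% = growth equal to vehicle treated cultures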
# assay setup: S. cerevisiae cln2 rad14 strain, at 50.0 µM, stronger effect = higher value
This is part of a sample that, as a whole, favours compounds with a hit. Of some 79,000 tested, about 15% had one in any assay.
property measured: growth inhibition (%)
Just the number in %, nothing appended.

# count of solved cases: 4
compound: CC(C)=NC(C(=O)O)C(C)(C)S (configuration not stated)
unit text: %
growth inhibition: -12.3
--
compound: CSC(=S)c1ccc(NSc2ccccc2[N+](=O)[O-])cc1
unit text: %
growth inhibition: 14
--
compound: CC1CCN(C(=S)[S-])CC1.CC1CCN(C(=S)[S-])CC1.[Zn]
unit text: %
growth inhibition: 34.2
--
compound: Cc1cccc(NC(=O)C(Cl)Cl)n1
unit text: %
growth inhibition: -43.8

// recorded growth inhibition for O=C(O)c1c(Br)c(Br)c(Br)c(Br)c1C(=O)Nc1ccccc1F : 20.2

// recorded growth inhibition for COc1cc2c(cc1OC)C1=C(/C=C\C(C)=O)CCN1CC2 : -8.65

// recorded growth inhibition for O=C(O)C1CC2C3CC(C(=O)O)C(C3)C2C1 (configuration not stated) : -1.85

---

# experiment description: NCI Yeast Anticancer Drug Screen. Data for the cln2 rad14 strain (AID 165);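 further: 0% = growth equal to vehicle treated cultures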
# assay setup: S. cerevisiae cln2 rad14 strain, at 50.0 µM, stronger effect = higher value
Compounds without any hit were thinned out: in the full panel of roughly 79,000, 15% have a hit. Activity calls are given as the source filed them. No stated cut-off is given here; in the data, active means growth inhibition above about 70%; inactive means the rest.
property measured: growth inhibition

# count of solved cases: 10
molecule: CCOC(=O)c1c[nH]c2cc3c(cc2c1=O)CCS3
growth inhibition: 3.95% (inactive)
//
molecule: CC1(Br)S(=O)(=O)OCCOS1(=O)=O
growth inhibition: 6.1% (inactive)
//
molecule: CC#CC(C)(C)N(C)C
growth inhibition: -21.4% (inactive)
//
molecule: CC(=O)CSCc1ccccn1
growth inhibition: 10.2% (inactive)
//
molecule: Cn1c2ccccc2c2[nH]c3ccccc3c(=O)c21
growth inhibition: -8.95% (inactive)
//
molecule: C=C(c1ccc(OC)cc1)c1cc(C(C)(C)C)c(O)c(C(C)(C)C)c1
growth inhibition: 51.8% (inactive)
//
molecule: Cc1nc(N)nc2c1CCC(=O)N2
growth inhibition: -37.6% (inactive)
//
molecule: CSc1nnc(CCC(=O)Nc2ccc(Cl)cc2Cl)o1
growth inhibition: 10.3% (inactive)
//
molecule: O=C(CN1C(=O)c2ccccc2C1=O)NC1(C(=O)O)CCCC1
growth inhibition: -2.65% (inactive)
//
molecule: CN(C)c1ccc(/C=C2\CCc3ccccc3C2=O)cc1Br
growth inhibition: -9.05% (inactive)

// recorded growth inhibition for COC1=C2CC(C)CC(OC)C(O)C(C)/C=C(\C)C(OC(N)=O)C(OC)/C=C\C=C(/C)C(=O)NC(=C(C=NC(C)(C)C)C1=O)C2=O (stereo not given) : 46.1% (inactive)

// recorded growth inhibition for c1ccc2c(c1)Cc1ccc3ccccc3c1-2 : 35.8% (inactive)

// recorded growth inhibition for NNC(=O)C(=O)N/N=C(\CCC(=O)Nc1ccc(Cl)cc1)Cc1nc2ccccc2s1 : 9.65% (inactive)

// recorded growth inhibition for CCOP(=O)(OCC)OC1CC(n2cc(C)c(=O)n(C)c2=O)OC1CO[Si](C)(C)C(C)(C)C (stereo not given) : 17.6% (inactive)

// recorded growth inhibition for COC(=O)C1c2ccccc2CC(=O)N1N (stereo not given) : 8.25% (inactive)

// recorded growth inhibition for CCC(COCC(CC)C(=O)O)C(=O)O (stereo not given) : 19.1% (inactive)

// recorded growth inhibition for COC(=O)CC1C=CC(OC)[C@@]2(C)C(=O)C=C(C)C(=O)[C@@H]12 (stereo not given in full) : -16.6% (inactive)

// recorded growth inhibition for Cc1ccc(N)c(C(=O)Nc2ccc(Br)cc2)c1 : -8.85% (inactive)

// recorded growth inhibition for CCN(CC)c1nc(C(N)=O)c([N+](=O)[O-])c(N(CC)CC)n1 : -14.2% (inactive)

// recorded growth inhibition for CCOC(=O)c1c[nH]c(=S)[nH]c1=O : -15.1% (inactive)

// recorded growth inhibition for CC(=O)NC(C)c1ccc2ccccc2c1 (stereo not given) : 7.55% (inactive)

// recorded growth inhibition for OCCCCCOCc1ccccc1 : 42.8% (inactive)

---

Readings of growth inhibition for the listed compounds
# experiment description: NCI Yeast Anticancer Drug Screen. Data for the cln2 rad14 strain (AID 165);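 further: 0% = growth equal to vehicle treated cultures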
# assay setup: S. cerevisiae cln2 rad14 strain, at 50.0 µM, stronger effect = higher value
This is part of a sample that, as a whole, favours compounds with a hit. Of some 79,000 tested, about 15% had one in any assay.
Just the number in %, nothing appended.

compound: N#C/C=C/c1cccc(Cl)c1
property measured: growth inhibition
quantitative readout: 14.3
//
compound: CC(=O)[C@H]1CC[C@H]2[C@@H]3CC=C4C=CCC[C@@H]4[C@H]3CC[C@]12C
property measured: growth inhibition
quantitative readout: -52
//
compound: CC(=O)NC(Cc1cc(I)c(OC(C)=O)c(I)c1)C(C)=O (configuration not stated)
property measured: growth inhibition
quantitative readout: 14.6
//
compound: COC1CCC(C(C)=O)C(C#N)(C#N)C1(C#N)C#N (configuration not stated)
property measured: growth inhibition
quantitative readout: -4.95
//
compound: COc1ccc(-c2cc(=O)c3c([nH]2)CCCC3)cc1
property measured: growth inhibition
quantitative readout: -16.8

# ---- query compound ----
// recorded growth inhibition for Cc1onc2c1c(=O)n(C)c(=O)n2C : -20.1

---

Readings of growth inhibition for the listed compounds
# experiment description: NCI Yeast Anticancer Drug Screen. Data for the rad50 strain (AID 155);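 further: 0% = growth of vehicle-only cultures of the same strain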
# assay setup: S. cerevisiae rad50 strain growth inhibition; at 50.0 µM; stronger effect = higher value
This is part of a sample that, as a whole, favours compounds with a hit. Of some 79,000 tested, about 15% had one in any assay.
Just the number in %, nothing appended.

// recorded growth inhibition for O=[N+]([O-])c1ccc(-c2ccccc2CO)cc1 : -9.55

// recorded growth inhibition for CC(=O)c1ccc(O)c(C)c1 : -9.3

// recorded growth inhibition for CCOC(=O)C1=C(O)C(=O)c2ccoc2C1=O : -52.9

// recorded growth inhibition for Cc1ccc(S(=O)(=O)C2(NC(=O)C3CC3)CC2)cc1 : -6.5

// recorded growth inhibition for CC1OC(c2c(Cl)cccc2[N+](=O)[O-])OC1C (stereo unspecified) : 3.5

// recorded growth inhibition for CC#CC(C)(C)N(C)C : -16.6

// recorded growth inhibition for CC1=C(C(=O)O)C(C)CC(=O)N1 (stereo unspecified) : 5.15
